assay.remarks: Biodistribution study with lead-212
Format: in vivo, mouse
condition.notes: mouse, liver, intravenous, 100 kBq, 1 h p.i.; n = 4; read-out: Liver uptake
metric.name: tissue uptake at 1 h (%ID/g)
Give bare numbers, in %ID/g.

C[C@@H](O)[C@H](NC(=O)[C@@H]1CSSC[C@H](NC(=O)[C@@H](Cc2ccccc2)NC(=O)CN2CCC(NC(=O)CN3CCN(CC(N)=O)CCN(CC(N)=O)CCN(CC(N)=O)CC3)CC2)C(=O)N[C@@H](Cc2ccc(O)cc2)C(=O)N[C@H](Cc2c[nH]c3ccccc23)C(=O)N[C@@H](CCCCN)C(=O)N[C@@H]([C@@H](C)O)C(=O)N1)C(=O)O [[^212Pb]Pb-eSOMA-02, metal not drawn]
3.96

State recorded tissue uptake at 1 h for all listed compounds.
1. C[C@@H](O)[C@H](NC(=O)[C@@H]1CSSC[C@H](NC(=O)[C@@H](Cc2ccccc2)NC(=O)[C@H]2CC[C@H](CNC(=O)CN3CCN(CC(N)=O)CCN(CC(N)=O)CCN(CC(N)=O)CC3)CC2)C(=O)N[C@@H](Cc2ccc(O)cc2)C(=O)N[C@H](Cc2c[nH]c3ccccc23)C(=O)N[C@@H](CCCCN)C(=O)N[C@@H]([C@@H](C)O)C(=O)N1)C(=O)O [[^212Pb]Pb-eSOMA-01, metal not drawn]
2. C[C@@H](O)[C@H](NC(=O)[C@@H]1CSSC[C@H](NC(=O)[C@@H](Cc2ccccc2)NC(=O)CN2CCN(CC(N)=O)CCN(CC(N)=O)CCN(CC(N)=O)CC2)C(=O)N[C@@H](Cc2ccc(O)cc2)C(=O)N[C@H](Cc2c[nH]c3ccccc23)C(=O)N[C@@H](CCCCN)C(=O)N[C@@H]([C@@H](C)O)C(=O)N1)C(=O)O [[^212Pb]Pb-DOTAM-TATE, metal not drawn, reference compound]

1: 4.72; 2: 2.69

---

assay.remarks: Biodistribution study with lead-212
Type: in vivo, mouse
condition.notes: mouse, liver, intravenous, 24 h block: co-injection of excess (25 nmol) unlabeled peptide; read-out: Liver uptake
So I've got a bunch of compounds here, and I need their tissue uptake at 24 h values.
One number for each entry, in %ID/g.

C[C@@H](O)[C@H](NC(=O)[C@@H]1CSSC[C@H](NC(=O)[C@@H](Cc2ccccc2)NC(=O)CN2CCC(NC(=O)CN3CCN(CC(N)=O)CCN(CC(N)=O)CCN(CC(N)=O)CC3)CC2)C(=O)N[C@@H](Cc2ccc(O)cc2)C(=O)N[C@H](Cc2c[nH]c3ccccc23)C(=O)N[C@@H](CCCCN)C(=O)N[C@@H]([C@@H](C)O)C(=O)N1)C(=O)O [[^212Pb]Pb-eSOMA-02, metal not drawn]
0.83
C[C@@H](O)[C@H](NC(=O)[C@@H]1CSSC[C@H](NC(=O)[C@@H](Cc2ccccc2)NC(=O)CN2CCN(CC(N)=O)CCN(CC(N)=O)CCN(CC(N)=O)CC2)C(=O)N[C@@H](Cc2ccc(O)cc2)C(=O)N[C@H](Cc2c[nH]c3ccccc23)C(=O)N[C@@H](CCCCN)C(=O)N[C@@H]([C@@H](C)O)C(=O)N1)C(=O)O [[^212Pb]Pb-DOTAM-TATE, metal not drawn, reference compound]
0.25

Can you share its tissue uptake at 24 h? I mean this compound: C[C@@H](O)[C@H](NC(=O)[C@@H]1CSSC[C@H](NC(=O)[C@@H](Cc2ccccc2)NC(=O)[C@H]2CC[C@H](CNC(=O)CN3CCN(CC(N)=O)CCN(CC(N)=O)CCN(CC(N)=O)CC3)CC2)C(=O)N[C@@H](Cc2ccc(O)cc2)C(=O)N[C@H](Cc2c[nH]c3ccccc23)C(=O)N[C@@H](CCCCN)C(=O)N[C@@H]([C@@H](C)O)C(=O)N1)C(=O)O [[^212Pb]Pb-eSOMA-01, metal not drawn] 1.07
